Test system: rhesus monkey PBMCs
Assay: Cytokine production by rhesus monkey PBMC (ELISA)
Assay type: cell-based
Conditions: PBMC of 4 healthy rhesus monkeys, 100 μg/ml, 48 h
EXPERIMENTAL READOUT: IL-10 fold increase: mean +/− SD

1) CCGTCC [SEQ ID NO:28]    1.1 +/− 0.2 fold increase
2) TGGTTG [SEQ ID NO:29]    1.1 +/− 0.2 fold increase
3) GGGGGG [SEQ ID NO:44]    2.1 +/− 1.0 fold increase
4) CTGTCT [SEQ ID NO:36]    1.0 +/− 0.1 fold increase

====

System: THP-1 human acute monocytic leukemia cells
Assay: Cytokine production by THP-1 cells (ELISA)
Type: cell-based
Settings: THP-1, 1×10^6 cells, 100 μg/ml, 48 h
EXPERIMENTAL READOUT: ↑ IL-6 (fold increase treated vs control cells)

1) GGGTCC [SEQ ID NO:35]    21.3x
2) TCCATCGCCAAGGAGATCGAGCTGGAGGATCCGTACGAGAAGATC (unmodified DNA) [BCG A-3, reference compound]    2.5x
3) ACCGATGACGTCGCCGGTGACGGCAACACGACGGCCACCGTGCTG (unmodified DNA) [BCG A-4, reference compound]    1.8x
4) TTGTGG [SEQ ID NO:39]    6.6x
5) GTGTGTGTGTGTGTGTGT (unmodified DNA) [SEQ ID NO:18]    2.8x
6) CCGTCC [SEQ ID NO:28]    12.6x
7) AAGTAA [SEQ ID NO:27]    12.8x
8) GGGCGG (unmodified DNA) [SEQ ID NO:46]    9.8x
9) TCGTTC [SEQ ID NO:37]    12.9x
10) GGGGGG [SEQ ID NO:44]    15.1x
11) ACGAGACCACCATCGTCGAGGGCGCCGGTGACACCGACGCCATCG (unmodified DNA) [BCG A-6, reference compound]    3.9x
12) CCGTGG [SEQ ID NO:34]    10.8x
13) AGGTGA [SEQ ID NO:31]    4.9x
14) TGTGTG [SEQ ID NO:9]    4.0x
15) GGCCGG [SEQ ID NO:43]    17.1x
16) GTGTGTGTGTGT [SEQ ID NO:14]    1.3x
17) TGTGTGTGTGTG [SEQ ID NO:13]    5.7x
18) CGGTGC [SEQ ID NO:38]    6.9x
19) CGACTACAACGGCTGGGATATCAACACCCCGGCGTTCGAGTGGTA (unmodified DNA) [BCG ALPHA-1, reference compound]    2.1x

Where do these numbers come from? They come from patent US20070213291A1.
